- subject_of_test: AfGna1 (Aspergillus fumigatus, UniProt Q4WCU5)
- Construct: gene AFUA_6G02460; GST fusion (pGEX6P-1) from E. coli BL21(DE3) pLysS, GST tag cleaved with PreScission; obligate homodimer; 164-165 residues modelled; biotinylated for BLI
- Sequence (Q4WCU5 1-190): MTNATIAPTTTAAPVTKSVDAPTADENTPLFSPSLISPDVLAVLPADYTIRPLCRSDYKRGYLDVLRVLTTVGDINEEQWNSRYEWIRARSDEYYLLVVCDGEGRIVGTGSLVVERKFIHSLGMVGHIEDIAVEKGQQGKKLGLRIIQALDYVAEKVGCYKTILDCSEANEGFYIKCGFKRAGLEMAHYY
- protocol_notes: bio-layer interferometry, confirmed by isothermal titration calorimetry
- Type: binding
- test_context: read-out: equilibrium dissociation constant
reported_endpoint: pKd
Note: pKd values are expressed as the negative base-10 logarithm of concentration in M.

Input line: Check the records and state pKd for Clc1ccccc1-c1nnc[nH]1
Output line: 5.22
